This listing pairs compounds with measured NanoBRET Fold Response.
molecular target: ACKR3 (Homo sapiens, UniProt P25106); construct: purchased Promega (in-house HiBiT-GPCR construct library, NanoBRET); test: NanoBRET screen HiBiT-ACKR3 in HEK293; assay type: binding; conditions: ACKR3; tracer 0.1μM
Sequence (P25106 whole entry): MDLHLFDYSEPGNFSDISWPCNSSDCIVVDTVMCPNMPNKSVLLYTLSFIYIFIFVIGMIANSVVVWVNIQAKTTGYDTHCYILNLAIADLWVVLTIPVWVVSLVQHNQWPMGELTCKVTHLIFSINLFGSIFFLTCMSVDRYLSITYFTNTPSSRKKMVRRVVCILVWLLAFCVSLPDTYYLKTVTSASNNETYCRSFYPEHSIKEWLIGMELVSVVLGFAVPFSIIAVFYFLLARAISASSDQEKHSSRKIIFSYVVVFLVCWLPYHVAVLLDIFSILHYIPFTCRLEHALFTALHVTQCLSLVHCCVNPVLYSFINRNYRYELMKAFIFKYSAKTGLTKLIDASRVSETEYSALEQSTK
// return a plain number; no unit text

| compound | NanoBRET Fold Response |
| --- | --- |
| O=C(CCc1ccc2n1[B-](F)(F)[N+]1=C(c3ccc[nH]3)C=CC1=C2)NCc1ccc(C(=O)NCCOCCC(=O)N[C@@H]2CC[C@@]3(O)[C@H]4Cc5ccc(O)c6c5[C@@]3(CCN4CC3CC3)[C@H]2O6)cc1 [Naltrexone-3-NB590] | 1.11 |
| CC(C)N(CC[C@H](c1ccccc1)c1cc(CCNC(=O)c2ccc(CNC(=O)CCc3ccc4n3[B-](F)(F)[N+]3=C(c5ccc[nH]5)C=CC3=C4)cc2)ccc1O)C(C)C [Tolterodine-BZ-NB590] | 0.88 |

Would you kindly look at the next entry?
Task item: Report NanoBRET Fold Response for N#CN=C(NCCCOc1cccc(CN2CCCCC2)c1)NCCNC(=O)CCOCCOCCOCCOCCNC(=O)CCc1ccc2n1[B-](F)(F)[N+]1=C(c3ccc[nH]3)C=CC1=C2 [Aminopotentidine-2-NB590] tested on ACKR3 (Homo sapiens, UniProt P25106).
Reply: 0.99

---

target: BDKRB2 (Homo sapiens); construct: purchased Promega (in-house HiBiT-GPCR construct library, NanoBRET); test: NanoBRET screen HiBiT-BDKRB2 in HEK293; type: binding; settings: BDKRB2; tracer 1μM
Sequence (P30411 whole entry): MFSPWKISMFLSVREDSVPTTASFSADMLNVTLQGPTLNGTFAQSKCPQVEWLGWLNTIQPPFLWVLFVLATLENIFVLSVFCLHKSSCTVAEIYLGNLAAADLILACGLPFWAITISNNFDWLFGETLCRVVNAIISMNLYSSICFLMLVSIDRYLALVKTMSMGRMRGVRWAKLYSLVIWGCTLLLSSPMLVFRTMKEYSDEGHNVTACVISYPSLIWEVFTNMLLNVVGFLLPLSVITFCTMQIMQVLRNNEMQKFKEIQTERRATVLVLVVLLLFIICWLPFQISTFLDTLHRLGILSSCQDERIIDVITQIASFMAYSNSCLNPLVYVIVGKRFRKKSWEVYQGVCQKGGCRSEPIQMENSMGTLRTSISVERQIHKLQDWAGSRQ
Threshold check on NanoBRET Fold Response: at or above 1 gives 1 (yes), strictly below gives 0 (no).

| compound | systemTested | categoryLabel |
| --- | --- | --- |
| O=C(CCc1ccc2n1[B-](F)(F)[N+]1=C(c3ccc[nH]3)C=CC1=C2)NCc1ccc(C(=O)NCCOCCC(=O)N[C@@H]2CC[C@@]3(O)[C@H]4Cc5ccc(O)c6c5[C@@]3(CCN4CC3CC3)[C@H]2O6)cc1 [Naltrexone-3-NB590] | BDKRB2 (Homo sapiens) | 0 (no) |
| O=C(CCOCCOCCOCCOCCNC(=O)CCc1ccc2n1[B-](F)(F)[N+]1=C(c3ccc[nH]3)C=CC1=C2)NCCCN1CCN(C2=Nc3ccccc3Oc3ccc(Cl)cc32)CC1 | BDKRB2 (Homo sapiens) | 1 (yes) |
| COc1ccccc1N1CCN(CCCCN2C(=O)c3ccc(CNC(=O)CCOCCNC(=O)c4ccc(CNC(=O)CCc5ccc6n5[B-](F)(F)[N+]5=C(c7ccc[nH]7)C=CC5=C6)cc4)cc3C2=O)CC1 | BDKRB2 (Homo sapiens) | 0 (no) |

Task item: Item `O=C(CCc1ccc2n1[B-](F)(F)[N+]1=C(c3ccc[nH]3)C=CC1=C2)NCCOCCOCCNC(=O)OCCOCCN1CCN(C2=Nc3ccccc3Sc3ccccc32)CC1` with NanoBRET Fold Response of 1 or above?
Reply: 0 (no)

Task item: Is NanoBRET Fold Response at least 1? Consider `CC(C)N(CC[C@H](c1ccccc1)c1cc(CCNC(=O)c2ccc(CNC(=O)CCc3ccc4n3[B-](F)(F)[N+]3=C(c5ccc[nH]5)C=CC3=C4)cc2)ccc1O)C(C)C`
Reply: 1 (yes)
